assay: yeast display, Sf9 membrane polyspecificity reagent, FACS + sequencing; frameworks hold sequencing errors
Measured metric: polyreactivity (PSR sort gate)

Sample answers from the record:
[[record]]
sequence_data = "QVQLVESGGGLVQAGGSLRLSCAASGSTFVYYAMGWYRQAPGKERELVAAITGSVDSTYYADSVKGRFTISRDNAKNTVYLQMNSLNPEDTAVYYCAAVTYSTYWGQGTQVTVSS"
result = "low polyreactivity"

[[record]]
sequence_data = "QVQLVESGGGLVQAGGSLRLSCAASGRTFAAYAMGWYRQAPGKERELVAAITSGGGTYYADSVKGRFTISRDNAKNTVYLQMNSLKPEDTAVYYCAADYISVYGYEYYYWGQGTQVTVSS"
result = "high polyreactivity"

[[record]]
sequence_data = "QVQLVESGGGLVQAGGSLRLICAASGSIFPRYVMGWSRQAPGKERELVAAITRRGGSTYYADSVKGRFTISRDNAKHTVYLQMNSLKPADTAVYYCNAKYRLEMDWGQGTQVTVSS"
result = "high polyreactivity"

[[record]]
sequence_data = "QVQLVESGGGLVQAGGSLRLSCAASGLIVQVYDMGWYRQAPGKEMELVAAISSGSNTNYADSVKGRFTISRDNAKNTVYLLMNSLKPEDTAVYYCAASWGYGALTPDMGYWGQGTQVTVSA"
result = "low polyreactivity"

[[record]]
sequence_data = "QVQLVESGGGLVQAGGSLRLSCAASGSTFYFYVMGWYRQAPGKERELVARISWSGGSTYYADSVKGRFTISRDNAKNTVYLQMNSLKPEDTAVYYCARQYKYPSSGEYDSWGQGTQVTVSS"
result = "low polyreactivity"

[[record]]
sequence_data = "QVQLVESGGGLVQAGGSLRLSCAASGRIFVYYAMGWYRPAPGKERELVATITETGGSTYYADSVKGRFTISRDNAKNTVYLQMNSLKPEDSAVYYCNADYWGTYGWDWYWYVYWGQGTQVTVSS"
result = "low polyreactivity"


Incoming: I am curious: what polyreactivity (PSR sort gate) value has been reported for QVQLVESGGGLVQAGGSLRLSCAASGSIFNWNTMGWYRQAPGKERELVAAITYDGGTTYYADSVKGRFTISRDYAKNNVYLQMISLKPEDTAVYYCAAEFLYKYGRYDYWGQGTQVTVSS ?
Outgoing: high polyreactivity
